# Lookup of reported inhibition at 10 µM keyed by entry
- target: Solute carrier family 22 member 12 (Homo sapiens, UniProt Q96S37)
- runDescription: Inhibition of human URAT1 expressed in HEK-293T cells assessed as inhibition rate by measuring [C14}-uric acid uptake at 10 uM measured after 8 mins by MicroBeta2 scintillation counting analysis relative to control
- Type: cell-based
observedProperty: inhibition at 10 µM (%)

{"compound": "CC(C)[C@@H](CNS(=O)(=O)C(F)(F)F)NC(=O)c1ccnc2ccc(Br)cc12", "unitTag": "%", "number": 59}
{"compound": "O=C(O)CSc1nnc(Br)n1-c1ccc(C2CC2)c2ccccc12", "unitTag": "%", "number": 78.7}
{"compound": "O=C(c1ccc(Br)c2ncccc12)N1CCC[C@H]1CNS(=O)(=O)C(F)(F)F", "unitTag": "%", "number": 82}
{"compound": "O=C(c1csc2ccccc12)N1CCC[C@H]1CNS(=O)(=O)C(F)(F)F", "unitTag": "%", "number": 45}
{"compound": "O=C(c1ccnc2ccc(-c3ccc(Cl)cc3)cc12)N1CCC[C@H]1CNS(=O)(=O)C(F)(F)F", "unitTag": "%", "number": 93}
{"compound": "O=C(c1cnc2ccc(Br)cc2c1)N1CCCC1CNS(=O)(=O)C(F)(F)F (stereo not drawn)", "unitTag": "%", "number": 78.2}
{"compound": "O=C(c1cn(C2CC2)c2ccc(Br)cc12)N1CCC[C@H]1CNS(=O)(=O)C(F)(F)F", "unitTag": "%", "number": 47}
{"compound": "O=C(c1ccnc2ccc(-c3ccc(Cl)s3)cc12)N1CCC[C@H]1CNS(=O)(=O)C(F)(F)F", "unitTag": "%", "number": 80}

###

- runDescription: Metabolic stability in mouse liver microsomes assessed as compound remaining in presence of NADPH measured after 30 mins
- Format: ADME, Microsome
- measurementSetup: read-out: Stability
Label Fulfilled when remaining at 0.5 h is strictly below 30%; at or above that, label Not fulfilled.

{"chemSmiles": "O=C(c1ccnc2ccc(Br)cc12)N1CCC[C@H]1CNS(=O)(=O)C(F)(F)F", "qualitativeLabel": "Not fulfilled"}
{"chemSmiles": "O=C(c1ccnc2ccc(-c3ccnc(F)c3)cc12)N1CCC[C@H]1CNS(=O)(=O)C(F)(F)F", "qualitativeLabel": "Not fulfilled"}
{"chemSmiles": "O=C(c1ccnc2ccc(-c3cnoc3)cc12)N1CCC[C@H]1CNS(=O)(=O)C(F)(F)F", "qualitativeLabel": "Fulfilled"}
{"chemSmiles": "O=C(c1ccnc2ccc(C3CCCC3)cc12)N1CCC[C@H]1CNS(=O)(=O)C(F)(F)F", "qualitativeLabel": "Fulfilled"}
{"chemSmiles": "O=C(c1ccnc2ccc(-c3ccc(F)cc3)cc12)N1CCC[C@H]1CNS(=O)(=O)C(F)(F)F", "qualitativeLabel": "Fulfilled"}
{"chemSmiles": "O=C(c1ccnc2ccc(C3CCCCC3)cc12)N1CCC[C@H]1CNS(=O)(=O)C(F)(F)F", "qualitativeLabel": "Fulfilled"}
{"chemSmiles": "O=C(c1ccnc2ccc(C3CC3)cc12)N1CCC[C@H]1CNS(=O)(=O)C(F)(F)F", "qualitativeLabel": "Not fulfilled"}

###

- runDescription: Oral bioavailability in ICR mouse plasma at 50 mg/kg measured upto 24 hrs by LC-MS/MS analysis
- Assay type: ADME, organism-based

{"chemSmiles": "O=C(c1ccnc2ccc(Br)cc12)N1CCC[C@H]1CNS(=O)(=O)C(F)(F)F", "bioavailability / %": 83.7}

###

- target: Solute carrier family 22 member 12 (Homo sapiens, UniProt Q96S37)
- Sequence (Q96S37 whole entry): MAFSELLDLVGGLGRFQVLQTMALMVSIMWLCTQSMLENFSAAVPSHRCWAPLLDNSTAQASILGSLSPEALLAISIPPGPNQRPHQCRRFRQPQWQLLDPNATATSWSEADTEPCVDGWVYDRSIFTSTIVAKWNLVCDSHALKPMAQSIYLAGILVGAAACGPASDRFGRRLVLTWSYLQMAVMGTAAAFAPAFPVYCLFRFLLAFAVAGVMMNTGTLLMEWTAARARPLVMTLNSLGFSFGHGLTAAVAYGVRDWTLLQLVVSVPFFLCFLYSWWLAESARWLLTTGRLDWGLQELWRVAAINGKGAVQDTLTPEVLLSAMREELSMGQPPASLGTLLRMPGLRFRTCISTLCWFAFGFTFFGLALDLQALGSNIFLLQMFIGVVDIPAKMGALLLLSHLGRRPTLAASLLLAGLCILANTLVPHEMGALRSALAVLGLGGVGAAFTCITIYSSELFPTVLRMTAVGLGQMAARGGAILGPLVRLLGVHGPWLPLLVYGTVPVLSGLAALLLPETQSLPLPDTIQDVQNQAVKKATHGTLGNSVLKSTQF
- runDescription: Inhibition of human URAT1 expressed in HEK-293T cells assessed as inhibition rate by measuring [C14}-uric acid uptake at 1 uM measured after 8 mins by MicroBeta2 scintillation counting analysis relative to control
- Format: cell-based

{"chemSmiles": "O=C(c1ccnc2ccc(Nc3ccc(OC(F)(F)F)cc3)cc12)N1CCC[C@H]1CNS(=O)(=O)C(F)(F)F", "target": "Solute carrier family 22 member 12 (Homo sapiens, UniProt Q96S37)", "inhibition at 1 µM": "2%"}
{"chemSmiles": "COc1ccc(Nc2ccc3nccc(C(=O)N4CCC[C@H]4CNS(=O)(=O)C(F)(F)F)c3c2)cc1", "target": "Solute carrier family 22 member 12 (Homo sapiens, UniProt Q96S37)", "inhibition at 1 µM": "35%"}
{"chemSmiles": "Cc1ccc(COc2ccc3nccc(C(=O)N4CCC[C@H]4CNS(=O)(=O)C(F)(F)F)c3c2)cc1", "target": "Solute carrier family 22 member 12 (Homo sapiens, UniProt Q96S37)", "inhibition at 1 µM": "24%"}
{"chemSmiles": "CC(C)Oc1ccc2nccc(C(=O)N3CCC[C@H]3CNS(=O)(=O)C(F)(F)F)c2c1", "target": "Solute carrier family 22 member 12 (Homo sapiens, UniProt Q96S37)", "inhibition at 1 µM": "63%"}

###

- runDescription: Cmax in ICR mouse plasma at 5 mg/kg, iv measured upto 24 hrs by LC-MS/MS analysis
- Assay type: ADME, organism-based

{"chemSmiles": "O=C(c1ccnc2ccc(Br)cc12)N1CCC[C@H]1CNS(=O)(=O)C(F)(F)F", "Cmax": "6720 ng/mL"}

###

- target: UniProt Q96S37
- Sequence (Q96S37 whole entry): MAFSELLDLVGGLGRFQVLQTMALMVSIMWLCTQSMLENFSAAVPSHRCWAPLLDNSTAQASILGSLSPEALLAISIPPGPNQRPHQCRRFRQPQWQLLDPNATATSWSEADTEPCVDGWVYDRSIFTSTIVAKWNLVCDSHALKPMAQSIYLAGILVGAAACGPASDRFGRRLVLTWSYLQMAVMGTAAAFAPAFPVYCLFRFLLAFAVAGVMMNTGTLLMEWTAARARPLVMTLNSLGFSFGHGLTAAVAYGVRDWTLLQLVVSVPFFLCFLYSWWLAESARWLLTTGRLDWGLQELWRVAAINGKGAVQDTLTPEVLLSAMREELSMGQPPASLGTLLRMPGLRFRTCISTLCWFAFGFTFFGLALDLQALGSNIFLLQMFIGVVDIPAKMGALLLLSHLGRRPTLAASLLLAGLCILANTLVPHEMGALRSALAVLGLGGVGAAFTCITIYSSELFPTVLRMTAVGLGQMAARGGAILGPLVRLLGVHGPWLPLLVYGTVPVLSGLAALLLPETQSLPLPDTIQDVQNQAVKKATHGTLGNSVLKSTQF
- runDescription: Inhibition of human URAT1 expressed in HEK-293T cells assessed as inhibition rate by measuring [C14}-uric acid uptake at 10 uM measured after 8 mins by MicroBeta2 scintillation counting analysis relative to control
- Format: cell-based
inhibition at 10 µM of 60% or higher: Met. Under 60%: Not met.

{"molecule": "CS(=O)(=O)NCC1CCCN1C(=O)c1ccnc2ccc(Br)cc12 (centres undefined)", "target": "UniProt Q96S37", "qualitativeLabel": "Not met"}
{"molecule": "O=C(c1ccnc2ccc(Br)cc12)N1CCCC(CNS(=O)(=O)C(F)(F)F)C1 (centres undefined)", "target": "UniProt Q96S37", "qualitativeLabel": "Met"}
{"molecule": "O=C(c1ccnc2ccc(Br)cc12)N1CCCC1CNS(=O)(=O)c1ccc(C(F)(F)F)cc1 (centres undefined)", "target": "UniProt Q96S37", "qualitativeLabel": "Not met"}
{"molecule": "O=C(c1c[nH]c2ccc(Br)cc12)N1CCC[C@H]1CNS(=O)(=O)C(F)(F)F", "target": "UniProt Q96S37", "qualitativeLabel": "Not met"}
{"molecule": "Cc1ccc(-c2ccc3nccc(C(=O)N4CCC[C@H]4CNS(=O)(=O)C(F)(F)F)c3c2)o1", "target": "UniProt Q96S37", "qualitativeLabel": "Met"}
{"molecule": "O=C(c1cnc2ccc(Br)cc2c1)N1CCC1CNS(=O)(=O)C(F)(F)F (centres undefined)", "target": "UniProt Q96S37", "qualitativeLabel": "Met"}
{"molecule": "Cc1cc(F)ccc1-c1ccc2nccc(C(=O)N3CCC[C@H]3CNS(=O)(=O)C(F)(F)F)c2c1", "target": "UniProt Q96S37", "qualitativeLabel": "Met"}
{"molecule": "O=C(c1ccnc2ccc(-c3ccco3)cc12)N1CCC[C@H]1CNS(=O)(=O)C(F)(F)F", "target": "UniProt Q96S37", "qualitativeLabel": "Met"}
{"molecule": "O=C(c1ccnc2ccc(-c3ccc(F)cc3Cl)cc12)N1CCC[C@H]1CNS(=O)(=O)C(F)(F)F", "target": "UniProt Q96S37", "qualitativeLabel": "Met"}
{"molecule": "O=C(c1cnc2ccc(Br)cc2c1)N1CCCCC1CNS(=O)(=O)C(F)(F)F (centres undefined)", "target": "UniProt Q96S37", "qualitativeLabel": "Met"}
{"molecule": "O=C(c1ccnc2ccc(Br)cc12)N1CCCC(NS(=O)(=O)C(F)(F)F)C1 (centres undefined)", "target": "UniProt Q96S37", "qualitativeLabel": "Not met"}
{"molecule": "O=C(c1ccnc2ccc(Br)cc12)N1CCCC1CNC(=O)C(F)(F)F (centres undefined)", "target": "UniProt Q96S37", "qualitativeLabel": "Not met"}
{"molecule": "O=C(c1ccc(C2CC2)c2ccccc12)N1CCC[C@H]1CNS(=O)(=O)C(F)(F)F", "target": "UniProt Q96S37", "qualitativeLabel": "Not met"}
{"molecule": "COc1ccc(-c2ccc3nccc(C(=O)N4CCC[C@H]4CNS(=O)(=O)C(F)(F)F)c3c2)cc1", "target": "UniProt Q96S37", "qualitativeLabel": "Met"}
{"molecule": "O=C(c1ccnc2ccc(-c3cccs3)cc12)N1CCC[C@H]1CNS(=O)(=O)C(F)(F)F", "target": "UniProt Q96S37", "qualitativeLabel": "Met"}
{"molecule": "O=C(c1cccc2c(C3CC3)cccc12)N1CCC[C@H]1CNS(=O)(=O)C(F)(F)F", "target": "UniProt Q96S37", "qualitativeLabel": "Not met"}
{"molecule": "O=C(c1ccnc2ccc(-c3ccc(C(F)(F)F)cc3)cc12)N1CCC[C@H]1CNS(=O)(=O)C(F)(F)F", "target": "UniProt Q96S37", "qualitativeLabel": "Met"}
{"molecule": "O=C(c1ccnc2c(C3CC3)cccc12)N1CCC[C@H]1CNS(=O)(=O)C(F)(F)F", "target": "UniProt Q96S37", "qualitativeLabel": "Met"}

Attribution: ChEMBL document CHEMBL5512648
